Tested on: MDA-MB-468
TEST SUMMARY: phospho-S6 immunofluorescence (DAPI-normalised), per-plate z-score; higher = higher phospho-S6 signal (less pathway suppression)
CONDITIONS USED: co-treatment: GDC0941 450 nM; 24 h
Where a name gives a salt, the structure may show the parent alone.
OBSERVATION TYPE: phospho-S6 immunofluorescence (z-score)
One number for each entry.

See these solved cases before continuing.
# MOLECULE, phospho-S6 immunofluorescence (z-score)
data = [
    ("C[C@H]1C[C@H]2[C@@H]3CCC4=CC(=O)C=C[C@]4(C)[C@H]3C(=O)C[C@]2(C)[C@@]1(O)C(=O)CO [Meprednisone] (compound 10 µM)", 0.11),
    ("Cc1cccn2c(=O)c(-c3nnn[nH]3)cnc12 [Pemirolast (potassium)] (compound 10 µM)", -0.3),
    ("CN1CCC(OC(c2ccccc2)c2ccccc2)CC1 [Diphenylpyraline (hydrochloride)] (compound 10 µM)", 0.68),
    ("CN(C)CCC(c1ccccc1)c1ccccn1 (stereo not given) [Pheniramine (Maleate)] (compound 10 µM)", 0.09),
    ("Cc1nc2ccc(NC(=O)Nc3ccnc4cccnc34)cc2o1 (compound 10 µM)", 0.6),
]

Give phospho-S6 immunofluorescence (z-score) for each of the items listed below.
1. CCCCc1nc(C)c(CC(=S)N(C)C)c(=O)n1Cc1ccc(-c2ccccc2-c2nnn[nH]2)cc1 [Fimasartan] (compound 10 µM)
2. N=C(N)NC(=O)Cc1c(Cl)cccc1Cl [Guanfacine (hydrochloride)] (compound 10 µM)
3. COc1ccc(CCN2CCN(CCCc3ccccc3)CC2)cc1OC [SA4503 (dihydrochloride)] (compound 10 µM)
4. CN1CCN(CCc2ccc(Cl)c(Cl)c2)CC1 [BD1063 (dhydrochloride)] (compound 10 µM)
5. COc1ccccc1Oc1c(NS(=O)(=O)c2ccc(C(C)(C)C)cc2)nc(-c2ncccn2)nc1OCCO [Bosentan] (compound 10 µM)
6. CC(C)N(CCCCOCC(=O)NS(C)(=O)=O)c1cnc(-c2ccccc2)c(-c2ccccc2)n1 (compound 10 µM)
7. Cc1noc(NS(=O)(=O)c2ccc(N)cc2)c1C [Sulfisoxazole] (compound 10 µM)
8. CCOc1cc(N)c(Cl)cc1C(=O)NCC1CN(Cc2ccc(F)cc2)CCO1 (stereo not given) [Mosapride (citrate)] (compound 10 µM)

[0.34, 0.64, 0.13, 0.51, 0.53, 0.87, 1.15, 0.76]

* * *

Would you mind telling me the reported phospho-S6 immunofluorescence (z-score) of each entry?
Tested on: MDA-MB-468
TEST SUMMARY: phospho-S6 immunofluorescence (DAPI-normalised), per-plate z-score; higher = higher phospho-S6 signal (less pathway suppression)
CONDITIONS USED: co-treatment: vehicle; 24 h
Counter-ions that a name gives are not always drawn.
One number for each entry.

See these solved cases before continuing.
# COMPOUND, phospho-S6 immunofluorescence (z-score)
data = [
    ("CN(C)CCc1c[nH]c2ccc(C[C@H]3COC(=O)N3)cc12 [Zolmitriptan] (compound 10 µM)", -0.48),
    ("CCOC(=O)O[C@]1(C(=O)OCCl)CC[C@H]2[C@@H]3CCC4=CC(=O)C=C[C@]4(C)[C@H]3[C@@H](O)C[C@@]21C [Loteprednol Etabonate] (compound 10 µM)", -1.08),
]

Identify measured phospho-S6 immunofluorescence (z-score) associated with OC(CNCC(O)C1CCc2cc(F)ccc2O1)C1CCc2cc(F)ccc2O1 (stereo not drawn) [Nebivolol (hydrochloride)] (compound 10 µM)
-2.22
